The measurements presented in this section are drawn from ChEMBL document CHEMBL4811247.

ASSAY_SYSTEM: UniProtKB P07202
Sequence (P07202 whole entry): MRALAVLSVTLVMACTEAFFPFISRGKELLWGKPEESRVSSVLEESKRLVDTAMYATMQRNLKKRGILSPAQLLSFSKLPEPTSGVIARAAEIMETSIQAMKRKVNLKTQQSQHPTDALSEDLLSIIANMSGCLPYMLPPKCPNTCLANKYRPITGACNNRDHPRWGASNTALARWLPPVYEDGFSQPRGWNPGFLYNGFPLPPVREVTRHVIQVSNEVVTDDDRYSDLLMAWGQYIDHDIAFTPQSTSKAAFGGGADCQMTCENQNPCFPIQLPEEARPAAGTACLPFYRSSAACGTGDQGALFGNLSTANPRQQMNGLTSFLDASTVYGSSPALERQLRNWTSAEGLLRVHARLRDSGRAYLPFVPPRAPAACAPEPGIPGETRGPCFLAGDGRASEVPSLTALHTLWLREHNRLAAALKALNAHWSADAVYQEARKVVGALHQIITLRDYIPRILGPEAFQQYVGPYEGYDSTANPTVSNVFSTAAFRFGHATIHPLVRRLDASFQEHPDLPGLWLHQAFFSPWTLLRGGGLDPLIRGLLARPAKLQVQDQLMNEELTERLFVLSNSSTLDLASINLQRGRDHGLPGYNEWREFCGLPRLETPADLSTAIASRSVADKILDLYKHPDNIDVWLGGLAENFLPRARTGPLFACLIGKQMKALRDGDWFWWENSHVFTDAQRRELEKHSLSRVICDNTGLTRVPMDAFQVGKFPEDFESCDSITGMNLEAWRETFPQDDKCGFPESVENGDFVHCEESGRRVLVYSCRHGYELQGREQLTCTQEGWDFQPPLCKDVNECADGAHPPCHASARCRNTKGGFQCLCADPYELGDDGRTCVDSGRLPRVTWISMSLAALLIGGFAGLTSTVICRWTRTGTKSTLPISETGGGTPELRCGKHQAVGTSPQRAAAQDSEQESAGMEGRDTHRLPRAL
pIC50: −log10 of the molar value.
Would you mind labelling by pIC50? At or over 5 is 1, under is -1.

STRUCTURE_SMILES_STRING	LABEL_VALUE
Nc1cc(Cc2ccn(Cc3cccc(Cc4ccccc4)c3)n2)c2nn[nH]c2n1	1
Nc1cc(Cc2ccn(-c3ccccc3)n2)c2nn[nH]c2n1	1
Nc1cc(Cc2ccn(-c3ccccn3)n2)c2nn[nH]c2n1	1
Nc1cc(Cc2ccn(Cc3ccc4cnccc4c3)n2)c2nn[nH]c2n1	1
Nc1cc(Cc2ccn(Cc3cccc(C4CCNCC4)c3)n2)c2nn[nH]c2n1	-1
Nc1cc(Cc2ccn(Cc3ccc4c(c3)CCNC4)n2)c2nn[nH]c2n1	1

----------
PROTOCOL_SUMMARY: Protein binding in human plasma
Assay type: ADME, cell-free
SETUP_CONDITIONS: read-out: PPB (converted)
Measured fraction unbound by item

STRUCTURE_SMILES_STRING	fraction unbound
Nc1cc(Cc2ccn(Cc3ccc4c(c3)CCNC4)n2)c2nn[nH]c2n1	0.5
Nc1cc(Cc2ccn(Cc3cccc(C4CCNCC4)c3)n2)c2nn[nH]c2n1	0.2

----------
ASSAY_SYSTEM: Myeloperoxidase (Homo sapiens)
Sequence (P05164 165-273 limits assumed): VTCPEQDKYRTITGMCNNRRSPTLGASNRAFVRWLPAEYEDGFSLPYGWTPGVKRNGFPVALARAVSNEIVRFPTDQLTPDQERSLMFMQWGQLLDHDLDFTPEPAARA
Sequence (P05164 279-745 limits assumed): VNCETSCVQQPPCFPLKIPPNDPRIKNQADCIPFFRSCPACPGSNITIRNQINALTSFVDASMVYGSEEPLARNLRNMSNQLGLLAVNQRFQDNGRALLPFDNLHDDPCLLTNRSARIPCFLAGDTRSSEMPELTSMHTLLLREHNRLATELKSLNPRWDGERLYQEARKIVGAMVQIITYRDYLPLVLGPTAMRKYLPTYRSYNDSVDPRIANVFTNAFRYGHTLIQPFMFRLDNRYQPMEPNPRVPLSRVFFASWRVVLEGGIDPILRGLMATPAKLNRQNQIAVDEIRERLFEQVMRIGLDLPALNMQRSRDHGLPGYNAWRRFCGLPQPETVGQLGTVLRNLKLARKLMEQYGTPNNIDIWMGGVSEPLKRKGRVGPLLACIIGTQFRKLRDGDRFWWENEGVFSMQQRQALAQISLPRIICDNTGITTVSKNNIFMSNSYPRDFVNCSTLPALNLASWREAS
pIC50: −log10 of the molar value.
MEASURE: pIC50

COMPOUND	ASSAY_SYSTEM	NUMBER
Nc1cc(Cc2ccn(-c3ccccc3)n2)c2nn[nH]c2n1	Myeloperoxidase (Homo sapiens)	7.26
Nc1cc(Cc2ccn(Cc3ccccc3)n2)c2nn[nH]c2n1	Myeloperoxidase (Homo sapiens)	6.92
Nc1cc(C2CCNCc3cccc(c3)OCc3cccc(c3)Cn3cc2cn3)c2nn[nH]c2n1 (centres undefined)	Myeloperoxidase (Homo sapiens)	8.10
Nc1cc([C@H]2CCN[C@H]3C[C@H](Cc4ccccc4)[C@@H](C3)Oc3cccc(c3)Cn3cc2cn3)c2nn[nH]c2n1	Myeloperoxidase (Homo sapiens)	8.30
Nc1cc(Cc2ccn(Cc3cccc(Cc4ccccc4)c3)n2)c2nn[nH]c2n1	Myeloperoxidase (Homo sapiens)	7.41
Nc1cc(Cc2ccn(Cc3cccc(Oc4cccc5c4CNC5)c3)n2)c2nn[nH]c2n1	Myeloperoxidase (Homo sapiens)	7.59
Nc1cc(C2CCNCCc3cccc(c3)-c3cccc(c3)Cn3cc2cn3)c2nn[nH]c2n1 (centres undefined)	Myeloperoxidase (Homo sapiens)	7.68
Nc1cc(C2CCNC3CCC(CC3)COc3cccc(c3)Cn3cc2cn3)c2nn[nH]c2n1 (centres undefined)	Myeloperoxidase (Homo sapiens)	7.51
Nc1cc(C2CCNCC(=O)N(CCc3ccccc3)Cc3cccc(c3)Cn3cc2cn3)c2nn[nH]c2n1 (centres undefined)	Myeloperoxidase (Homo sapiens)	7.54

----------
PROTOCOL_SUMMARY: Clearance in mouse at 1 mg/kg, iv
Assay type: ADME, organism-based
SETUP_CONDITIONS: in vivo

STRUCTURE_SMILES_STRING	clearance (mL/min/kg)
Nc1cc(Cc2ccn(Cc3cccc(C4CCNCC4)c3)n2)c2nn[nH]c2n1	2.6

----------
Listing: pIC50 of selected compounds
ASSAY_SYSTEM: Cytochrome P450 3A4 (Homo sapiens, UniProt P08684)
Sequence (P08684 whole entry): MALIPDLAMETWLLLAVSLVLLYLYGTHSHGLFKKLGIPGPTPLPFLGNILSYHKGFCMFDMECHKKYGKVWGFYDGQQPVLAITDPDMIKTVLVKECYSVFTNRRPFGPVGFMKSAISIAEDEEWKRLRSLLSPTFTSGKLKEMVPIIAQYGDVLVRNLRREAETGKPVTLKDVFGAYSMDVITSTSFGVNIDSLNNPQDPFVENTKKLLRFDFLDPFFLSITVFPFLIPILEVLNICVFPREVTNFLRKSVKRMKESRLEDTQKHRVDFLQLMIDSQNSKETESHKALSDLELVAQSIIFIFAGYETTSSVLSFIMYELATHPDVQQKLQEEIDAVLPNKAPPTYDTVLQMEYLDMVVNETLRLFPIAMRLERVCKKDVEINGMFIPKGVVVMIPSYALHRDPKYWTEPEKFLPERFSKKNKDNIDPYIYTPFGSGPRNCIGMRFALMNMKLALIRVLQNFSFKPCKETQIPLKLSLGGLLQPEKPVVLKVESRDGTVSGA
PROTOCOL_SUMMARY: Time dependent inhibition of CYP3A4 (unknown origin) measured at 30 mins
pIC50: −log10 of the molar value.

STRUCTURE_SMILES_STRING	ASSAY_SYSTEM	pIC50
Nc1cc(Cc2ccn(Cc3cccc(-c4ccccc4)c3)n2)c2nn[nH]c2n1	Cytochrome P450 3A4 (Homo sapiens, UniProt P08684)	7.77
Nc1cc(Cc2ccn(Cc3cccc(Cc4ccccc4)c3)n2)c2nn[nH]c2n1	Cytochrome P450 3A4 (Homo sapiens, UniProt P08684)	7.43
Nc1cc(Cc2ccn(Cc3cccc(Oc4ccccc4)c3)n2)c2nn[nH]c2n1	Cytochrome P450 3A4 (Homo sapiens, UniProt P08684)	7.96
Nc1cc(Cc2ccn(-c3ccccc3)n2)c2nn[nH]c2n1	Cytochrome P450 3A4 (Homo sapiens, UniProt P08684)	6.68
Nc1cc(Cc2ccn(-c3ccc(F)cc3)n2)c2nn[nH]c2n1	Cytochrome P450 3A4 (Homo sapiens, UniProt P08684)	6.96
Nc1cc(Cc2ccn(Cc3ccc4cnccc4c3)n2)c2nn[nH]c2n1	Cytochrome P450 3A4 (Homo sapiens, UniProt P08684)	6.68
Nc1cc(Cc2ccn(Cc3ccccc3)n2)c2nn[nH]c2n1	Cytochrome P450 3A4 (Homo sapiens, UniProt P08684)	6.51
Nc1cc(Cc2ccn(Cc3ccc4ccccc4c3)n2)c2nn[nH]c2n1	Cytochrome P450 3A4 (Homo sapiens, UniProt P08684)	7.40
Nc1cc(Cc2ccn(Cc3cccc(O[C@H]4CCNC4)c3)n2)c2nn[nH]c2n1	Cytochrome P450 3A4 (Homo sapiens, UniProt P08684)	4.89
Nc1cc(Cc2ccn(Cc3ccc4c(c3)CCNC4)n2)c2nn[nH]c2n1	Cytochrome P450 3A4 (Homo sapiens, UniProt P08684)	5.15
Nc1cc(Cc2ccn(-c3ccccn3)n2)c2nn[nH]c2n1	Cytochrome P450 3A4 (Homo sapiens, UniProt P08684)	6.68

----------
PROTOCOL_SUMMARY: Half life in mouse at 1 mg/kg, iv
Format: ADME, organism-based
SETUP_CONDITIONS: in vivo
MEASURE: half-life

STRUCTURE_SMILES_STRING	MEASURE	RESULT
Nc1cc(Cc2ccn(Cc3cccc(C4CCNCC4)c3)n2)c2nn[nH]c2n1	half-life	1.2 h

----------
PROTOCOL_SUMMARY: Half life in human liver microsomes
Type: ADME, Microsome
compounds and their reported half-life

STRUCTURE_SMILES_STRING	half-life
Nc1cc(Cc2ccn(Cc3ccc4c(c3)CCNC4)n2)c2nn[nH]c2n1	> 120 min
Nc1cc(Cc2ccn(Cc3cccc(C4CCNCC4)c3)n2)c2nn[nH]c2n1	> 120 min

----------
Listed here: compounds with reported IC50 for Myeloperoxidase (Homo sapiens).

COMPOUND	IC50
Nc1cc(Cc2ccn(Cc3ccc4cnccc4c3)n2)c2nn[nH]c2n1	140 nM
Nc1cc(C2CCNCc3cccc(c3)COc3cccc(c3)Cn3cc2cn3)c2nn[nH]c2n1 (stereo unspecified)	25 nM
Nc1cc(Cc2ccn(-c3ccccn3)n2)c2nn[nH]c2n1	54 nM
Nc1cc(C2CCNCC3(CCCC3)COc3cccc(c3)Cn3cc2cn3)c2nn[nH]c2n1 (stereo unspecified)	26 nM
Nc1cc(C2CCNCc3cccc(c3)Oc3cccc(c3)Cn3cc2cn3)c2nn[nH]c2n1 (stereo unspecified)	36 nM
Nc1cc(C2CCNCCc3cccc(c3)Oc3cccc(c3)Cn3cc2cn3)c2nn[nH]c2n1 (stereo unspecified)	14 nM
Nc1cc(Cc2ccn(Cc3cccc(-c4ccccc4)c3)n2)c2nn[nH]c2n1	55 nM
Nc1cc(Cc2ccn(-c3ccc(F)cc3)n2)c2nn[nH]c2n1	53 nM
Nc1cc(Cc2ccn(Cc3ccc4ccccc4c3)n2)c2nn[nH]c2n1	52 nM
Nc1cc(Cc2ccn(Cc3cccc(C4CCNCC4)c3)n2)c2nn[nH]c2n1	100 nM
Nc1cc(Cc2ccn(Cc3ccc4c(c3)CCNC4)n2)c2nn[nH]c2n1	58 nM

----------
ASSAY_SYSTEM: Cytochrome P450 3A4 (Homo sapiens, UniProt P08684)
PROTOCOL_SUMMARY: Time dependent inhibition of CYP3A4 (unknown origin) measured at 30 mins
MEASURE: IC50 (µM)

STRUCTURE_SMILES_STRING	ASSAY_SYSTEM	MEASURE	NUMBER
Nc1cc(Cc2ccn(-c3cccc(-c4ccccc4)c3)n2)c2nn[nH]c2n1	Cytochrome P450 3A4 (Homo sapiens, UniProt P08684)	IC50	0.0071
Nc1cc(Cc2ccn(Cc3cccc(Oc4cccc5c4CNC5)c3)n2)c2nn[nH]c2n1	Cytochrome P450 3A4 (Homo sapiens, UniProt P08684)	IC50	0.14
Nc1cc(Cc2ccn(Cc3cccc(C4CCNCC4)c3)n2)c2nn[nH]c2n1	Cytochrome P450 3A4 (Homo sapiens, UniProt P08684)	IC50	3.3

----------
ASSAY_SYSTEM: CYP3A4 (Homo sapiens)
Sequence (P08684 whole entry): as the sequence (P08684 whole entry) above
PROTOCOL_SUMMARY: Ratio of IC50 for time dependent inhibition of CYP3A4 (unknown origin) measured at 5 mins to IC50 for time dependent inhibition of CYP3A4 (unknown origin) measured at 30 mins
SETUP_CONDITIONS: read-out: Ratio IC50
Entries annotated with measured IC50 shift
MEASURE: IC50 shift

STRUCTURE_SMILES_STRING	MEASURE	NUMBER
Nc1cc(Cc2ccn(Cc3cccc(-c4ccccc4)c3)n2)c2nn[nH]c2n1	IC50 shift	2.8
Nc1cc(Cc2ccn(Cc3cccc(Oc4cccc5c4CNC5)c3)n2)c2nn[nH]c2n1	IC50 shift	3.3
Nc1cc(Cc2ccn(Cc3cccc(O[C@H]4CCNC4)c3)n2)c2nn[nH]c2n1	IC50 shift	1.6
Nc1cc(Cc2ccn(Cc3ccccc3)n2)c2nn[nH]c2n1	IC50 shift	3.2
Nc1cc(Cc2ccn(Cc3cccc(Oc4ccccc4)c3)n2)c2nn[nH]c2n1	IC50 shift	2.9
Nc1cc(Cc2ccn(-c3ccc(F)cc3)n2)c2nn[nH]c2n1	IC50 shift	3.3
Nc1cc(Cc2ccn(Cc3cccc(C4CCNCC4)c3)n2)c2nn[nH]c2n1	IC50 shift	4.3
Nc1cc(Cc2ccn(Cc3ccc4ccccc4c3)n2)c2nn[nH]c2n1	IC50 shift	2.4
Nc1cc(Cc2ccn(-c3ccccn3)n2)c2nn[nH]c2n1	IC50 shift	3.2
Nc1cc(Cc2ccn(-c3cccc(-c4ccccc4)c3)n2)c2nn[nH]c2n1	IC50 shift	2.4
Nc1cc(Cc2ccn(Cc3ccc4c(c3)CCNC4)n2)c2nn[nH]c2n1	IC50 shift	2.8
Nc1cc(Cc2ccn(-c3ccccc3)n2)c2nn[nH]c2n1	IC50 shift	2.7
Nc1cc(Cc2ccn(Cc3cccc(Cc4ccccc4)c3)n2)c2nn[nH]c2n1	IC50 shift	2.8
Nc1cc(Cc2ccn(Cc3ccc4cnccc4c3)n2)c2nn[nH]c2n1	IC50 shift	4.1
